Value source: patent US11739100B2

TEST TARGET: recombinant Vps34 (Homo sapiens, UniProt Q8NEB9)
Sequence (Q8NEB9 whole entry): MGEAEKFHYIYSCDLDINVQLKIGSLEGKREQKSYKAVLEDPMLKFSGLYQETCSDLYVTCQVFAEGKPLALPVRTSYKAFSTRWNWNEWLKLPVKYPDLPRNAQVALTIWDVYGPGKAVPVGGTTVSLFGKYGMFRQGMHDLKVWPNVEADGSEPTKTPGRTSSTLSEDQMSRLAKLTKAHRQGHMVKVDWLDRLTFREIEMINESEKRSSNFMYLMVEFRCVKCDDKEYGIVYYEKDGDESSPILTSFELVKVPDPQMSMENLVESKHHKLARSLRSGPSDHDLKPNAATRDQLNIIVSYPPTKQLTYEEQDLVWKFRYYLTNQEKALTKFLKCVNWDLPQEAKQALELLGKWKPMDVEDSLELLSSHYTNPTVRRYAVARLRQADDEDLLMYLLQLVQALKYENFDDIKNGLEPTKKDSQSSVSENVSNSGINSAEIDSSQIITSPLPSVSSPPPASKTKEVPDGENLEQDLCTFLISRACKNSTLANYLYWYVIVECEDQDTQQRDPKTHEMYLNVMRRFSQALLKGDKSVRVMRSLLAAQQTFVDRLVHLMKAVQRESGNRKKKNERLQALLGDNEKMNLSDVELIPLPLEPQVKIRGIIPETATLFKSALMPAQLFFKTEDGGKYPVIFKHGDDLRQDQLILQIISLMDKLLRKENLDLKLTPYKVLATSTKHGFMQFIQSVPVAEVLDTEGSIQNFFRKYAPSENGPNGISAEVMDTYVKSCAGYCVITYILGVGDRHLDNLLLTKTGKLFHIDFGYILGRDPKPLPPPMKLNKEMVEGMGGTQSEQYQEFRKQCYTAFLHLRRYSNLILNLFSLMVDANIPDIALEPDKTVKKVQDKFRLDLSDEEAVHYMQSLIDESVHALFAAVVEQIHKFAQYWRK
ASSAY PROCEDURE: Phosphorylation of phosphatidylinositol (PI) by Vps34 in vitro, ADP detected by TR-FRET (HTRF Transcreener ADP)
TEST SETTINGS: 10 μM ATP, 55 μg/ml PI, approximately 3 nM Vps34, 1 hour at ambient temperature; absolute IC50, mean of two independent experiments; read-out: IC50 activity range
pIC50: −log10 of the molar value.
READOUT NAME: pIC50

Cc1nc(CN2c3nc(N4CCOC[C@H]4C)cc(=O)n3CC[C@@]2(C)C(F)(F)F)no1    > 8.00
C[C@@H]1COCCN1c1cc(=O)n2c(n1)N(CC(=O)c1ccnc(F)c1)[C@H](C(F)(F)F)CC2    > 8.00
C[C@@H]1COCCN1c1cc(=O)n2c(n1)N(CC(C)(C)O)[C@](C)(C(F)(F)F)CC2    > 8.00
C[C@@H]1COCCN1c1cc(=O)n2c(n1)N(Cc1nccs1)[C@H](C(F)(F)F)CC2    > 8.00
C[C@@H]1COCCN1c1cc(=O)n2c(n1)N(Cc1nc(C(F)(F)F)no1)CC[C@@H]2C(F)(F)F    > 8.00
C[C@@H]1COCCN1c1cc(=O)n2c(n1)N(CC(=O)N1CC3(CCO3)C1)[C@H](C(F)(F)F)CC2    7.00 to 8.00
C[C@@H]1COCCN1c1cc(=O)n2c(n1)N(CCOCC(F)(F)F)[C@H](C(F)(F)F)CC2    > 8.00
C[C@@H]1COCCN1c1nc2n(c(=O)c1F)[C@@H](C(F)(F)F)CCN2CC(=O)C1CCOCC1    > 8.00

Which value of pIC50 has been reported for CC1CN(c2cc(=O)n3c(n2)N(CC(=O)c2ccccn2)[C@H](C(F)(F)F)CC3)CCO1 (single isomer, unassigned) [Example 174] in the records? 7.00 to 8.00

For `C[C@@H]1COCCN1c1nc2n(c(=O)c1F)CC[C@@H](C(F)(F)F)N2Cc1cocn1` , what is its reported pIC50? > 8.00

Sample `C[C@@H]1COCCN1c1nc2n(c(=O)c1F)[C@@H](C(F)(F)F)CCN2c1ccc(OC(F)F)nc1` — what was its pIC50? > 8.00

---

TEST TARGET: recombinant Vps34 (Homo sapiens)
ASSAY PROCEDURE: Phosphorylation of phosphatidylinositol (PI) by Vps34 in vitro, ADP detected by TR-FRET (HTRF Transcreener ADP)
TEST SETTINGS: 10 μM ATP, 55 μg/ml PI, approximately 3 nM Vps34, 1 hour at ambient temperature; absolute IC50, mean of two independent experiments; read-out: IC50 activity range
pIC50: −log10 of the molar value.
A collection of molecules and their measured pIC50

Solved entries:
O=C(CN1c2nc(N3CC4CCC(C3)O4)cc(=O)n2CC[C@H]1C(F)(F)F)c1cccnc1 [Example 170]    7.00 to 8.00
C[C@@H]1COCCN1c1cc(=O)n2c(n1)N(Cc1ccc(Cl)nc1)CC[C@@H]2C(F)(F)F [Example 115]    > 8.00
CC(C)C(=O)CN1c2nc(N3CCOC[C@H]3C)cc(=O)n2CC[C@@]1(C)C(F)(F)F [Example 252]    > 8.00

# input molecule: CC(C)c1nc(CN2c3nc(N4CCOC[C@H]4C)c(F)c(=O)n3CC[C@H]2C(F)(F)F)no1 [Example 246] ; wanted: its pIC50 > 8.00

Quick one: pIC50 of Cc1nc(CN2c3nc(N4CC5CCC(C4)O5)c(F)c(=O)n3CC[C@H]2C(F)(F)F)no1 [Example 275] ? 7.00 to 8.00

---

TEST TARGET: recombinant Vps34 (Homo sapiens, UniProt Q8NEB9)
ASSAY PROCEDURE: Phosphorylation of phosphatidylinositol (PI) by Vps34 in vitro, ADP detected by TR-FRET (HTRF Transcreener ADP)
TEST SETTINGS: 10 μM ATP, 55 μg/ml PI, approximately 3 nM Vps34, 1 hour at ambient temperature; absolute IC50, mean of two independent experiments; read-out: IC50 activity range
pIC50: −log10 of the molar value.
Reported pIC50 values follow for various molecules

Use the examples below as a reference point.
O=c1cc(N2CC3CCC(C2)O3)nc2n1CC[C@@H](C(F)(F)F)N2c1cc(F)cc(F)c1    7.00 to 8.00
Cc1cc(C(=O)CN2c3nc(N4CCOC[C@H]4C)c(F)c(=O)n3CC[C@H]2C(F)(F)F)no1    > 8.00
C[C@@H]1COCCN1c1cc(=O)n2c(n1)N(Cc1nc(C(C)(C)C)no1)[C@H](C(F)(F)F)CC2    > 8.00

Please turn your attention to the following entry.
Data request, read-out pIC50, for `CC(C)CCC(=O)CN1c2nc(N3CCOC[C@H]3C)c(F)c(=O)n2CC[C@H]1C(F)(F)F` > 8.00

---

IC50 overview
TEST TARGET: recombinant Vps34 (Homo sapiens)
ASSAY PROCEDURE: Phosphorylation of phosphatidylinositol (PI) by Vps34 in vitro, ADP detected by TR-FRET (HTRF Transcreener ADP)
TEST SETTINGS: 10 μM ATP, 55 μg/ml PI, approximately 3 nM Vps34, 1 hour at ambient temperature; absolute IC50, mean of two independent experiments; read-out: IC50 activity range

Consider the worked cases shown below.
C[C@@H]1COCCN1c1nc2n(c(=O)c1F)CC[C@@H](C(F)(F)F)N2Cc1ccnc(Cl)c1 [Example 41]    < 10 nM
C[C@@H]1COCCN1c1nc2n(c(=O)c1F)CC[C@@H](C(F)(F)F)N2Cc1ccc(F)cn1 [Example 56]    < 10 nM
C[C@@H]1COCCN1c1nc2n(c(=O)c1F)CC[C@@H](C(F)(F)F)N2CC(=O)N1CCOCC1 [Example 235]    10 to 100 nM
CC(C)Oc1ncccc1CN1c2nc(N3CCOC[C@H]3C)cc(=O)n2CC[C@H]1C(F)(F)F [Example 230]    < 10 nM

Reported IC50 for C[C@@H]1COCCN1c1cc(=O)n2c(n1)N(Cc1cccnc1F)[C@H](C(F)(F)F)CC2 [Example 221] : what is it? < 10 nM

I would be grateful if you could share the reported IC50 for C[C@@H]1COCCN1c1cc(=O)n2c(n1)N(Cc1nc(C3CC3)no1)[C@H](C(F)(F)F)CC2 [Example 227] . < 10 nM

Which IC50 value belongs to C[C@@H]1COCCN1c1cc(=O)n2c(n1)N(CCc1ccccn1)[C@H](C(F)(F)F)CC2 [Example 220] ? < 10 nM

Which IC50 is reported for this molecule? CONC(=O)CN1c2nc(N3CCOC[C@H]3C)cc(=O)n2CC[C@H]1C(F)(F)F [Example 197] 10 to 100 nM

---

TEST TARGET: recombinant Vps34 (Homo sapiens, UniProt Q8NEB9)
ASSAY PROCEDURE: Phosphorylation of phosphatidylinositol (PI) by Vps34 in vitro, ADP detected by TR-FRET (HTRF Transcreener ADP)
TEST SETTINGS: 10 μM ATP, 55 μg/ml PI, approximately 3 nM Vps34, 1 hour at ambient temperature; absolute IC50, mean of two independent experiments; read-out: IC50 activity range
pIC50: −log10 of the molar value.
READOUT NAME: pIC50

Worked cases, pIC50 given:
C[C@@H]1COCCN1c1cc(=O)n2c(n1)N(CC(=O)c1cccnc1)[C@H](C(F)(F)F)CC2    > 8.00
C[C@@H]1COCCN1c1cc(=O)n2c(n1)N(Cc1cncs1)[C@H](C(F)(F)F)CC2    > 8.00
CC1CN(c2cc(=O)n3c(n2)N(CC(=O)C(C)C)[C@H](C(F)(F)F)CC3)CCO1 (stereo partly shown)    7.00 to 8.00
C[C@@H]1COCCN1c1cc(=O)n2c(n1)N(c1ccnc(Cl)c1)[C@H](C(F)(F)F)CC2    > 8.00
CO[C@H](CN1c2nc(N3CCOC[C@H]3C)cc(=O)n2CC[C@H]1C(F)(F)F)c1ccccc1    > 8.00

Consider the molecule shown here: `C[C@@H]1COC[C@@H](C)N1c1cc(=O)n2c(n1)N(Cc1ccno1)[C@H](C(F)(F)F)CC2` What is its recorded pIC50? > 8.00

Quick one: pIC50 of `Cc1nc(CN2c3nc(N4CCOC[C@H]4C)c(F)c(=O)n3C[C@@]2(C)C(F)(F)F)no1` ? > 8.00

// returns reported pIC50 for input `CCC(=O)CN1CC[C@H](C(F)(F)F)n2c1nc(N1CCOC[C@H]1C)c(F)c2=O` > 8.00

State the recorded pIC50 for this entry: `C[C@@H]1COCCN1c1cc(=O)n2c(n1)N(CC(N)=O)[C@H](C(F)(F)F)CC2` < 7.00

Entry `COC(=O)CN1c2nc(N3CCOC[C@H]3C)cc(=O)n2CC[C@H]1C(F)(F)F` : reported pIC50 = ? > 8.00

Value lookup for pIC50; key = `C[C@@H]1COCCN1c1cc(=O)n2c(n1)N(Cc1nnc(C(F)(F)F)o1)[C@H](C(F)(F)F)CC2` > 8.00
